Quick list: Ratio WT-kd/clone-kd per entry.
Target: T1, Extracellular domain (ECD) of the canine IL-4 receptor alpha-V5 epitope-AviTag-His Tag (canine)
T1 construct: monomeric form isolated by size exclusion; also called canine IL-4RA-V5-Avi-His; canine IL-4RA
T1 chain: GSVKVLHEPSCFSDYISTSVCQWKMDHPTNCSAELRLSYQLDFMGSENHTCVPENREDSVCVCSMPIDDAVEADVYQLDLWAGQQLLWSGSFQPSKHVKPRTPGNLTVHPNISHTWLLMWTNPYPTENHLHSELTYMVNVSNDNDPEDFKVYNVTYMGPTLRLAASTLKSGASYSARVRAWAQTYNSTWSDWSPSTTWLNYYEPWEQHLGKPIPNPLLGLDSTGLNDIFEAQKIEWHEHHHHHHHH
Experiment: SPR, Fab-SASA captured on BSA;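 further: biacore T200 SPR, Fab-SASA variants from E. coli conditioned medium captured on BSA-coated CM5 chip, canine IL-4RA injected 120 s then 420 s dissociation, 1:1 model fit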
Give your answer as a number; write no unit.

For orientation, consider the following solved cases.
{"BINDER": "TB640_005 Fab-SASA VL-A60L (Fab, V domains shown, not shown: SASA tag then His-tag) VH: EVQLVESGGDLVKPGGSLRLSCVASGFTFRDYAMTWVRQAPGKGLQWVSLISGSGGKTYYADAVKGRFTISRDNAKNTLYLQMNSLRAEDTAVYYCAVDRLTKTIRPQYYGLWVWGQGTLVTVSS VL: DIVMTQTPLSLSVSPGETASISCRSSQSLLYSIGYNYLDWYLQKPGQSPQGLIYLGSKRLSGVPDRFSGSGSGTDFTLRISRVEANDTGVYYCMQGLQSPLTFGQGTKLEIKR", "REPORTED PROPERTY": "Ratio WT-kd/clone-kd", "MEASURED": 0.98}
{"BINDER": "TB640_005 Fab-SASA VL-L30A (Fab, V domains shown, not shown: SASA tag then His-tag) VH: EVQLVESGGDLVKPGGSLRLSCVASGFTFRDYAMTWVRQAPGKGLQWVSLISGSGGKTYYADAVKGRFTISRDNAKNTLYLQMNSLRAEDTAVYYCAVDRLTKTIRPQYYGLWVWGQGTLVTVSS VL: DIVMTQTPLSLSVSPGETASISCRSSQSLAYSIGYNYLDWYLQKPGQSPQGLIYLGSKRASGVPDRFSGSGSGTDFTLRISRVEANDTGVYYCMQGLQSPLTFGQGTKLEIKR", "REPORTED PROPERTY": "Ratio WT-kd/clone-kd", "MEASURED": 0.51}

Query: Which Ratio WT-kd/clone-kd is listed for TB640_005 Fab-SASA VH-T28P (Fab, V domains shown, not shown: SASA tag then His-tag) VH: EVQLVESGGDLVKPGGSLRLSCVASGFPFRDYAMTWVRQAPGKGLQWVSLISGSGGKTYYADAVKGRFTISRDNAKNTLYLQMNSLRAEDTAVYYCAVDRLTKTIRPQYYGLWVWGQGTLVTVSS VL: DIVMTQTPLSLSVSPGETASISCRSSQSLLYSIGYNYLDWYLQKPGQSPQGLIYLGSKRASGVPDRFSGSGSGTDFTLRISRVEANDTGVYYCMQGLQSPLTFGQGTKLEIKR ?
Result: 1.21
